ASSAY REMARKS: chemical genetic growth profiling, strain panel (AID 1159580);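 further: tested at 20 µM; growth read once vehicle control cultures reached saturation at 30 °C; 1 = growth at the plate median or of vehicle wells; lower values mean less growth of the strain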
ASSAY CONDITIONS: S. cerevisiae deletion strains, growth OD, locus YKL085W, strain MDH1, active compounds read low
Among all 5,500 compounds or so, about 2,000 (36%) were called active. Inconclusive results (about 18%) are left out. The list shows a part of the results.
PROPERTY NAME: normalized growth

* C=C[C@H]1CN2CC[C@H]1C[C@@H]2[C@@H](OC(=O)OCC)c1ccnc2ccc(OC)cc12 | 1.01
* CC(C)c1c(O)c(-c2cc3c(c(C(C)C)c2O)CCC2C(C)(C)CCC[C@]32C)cc2c1CCC1C(C)(C)CCC[C@]21C (stereo partly specified) | 1.07
* CCCCCCCCCCCC1=C(O)C(=O)C=C(O)C1=O | 0.513
* CC(C1OC(C)(C)C(O)C1O)[C@@H]1CC[C@]2(C)C3=CCC4C(C)(C)C(=O)CC[C@]4(C)C3CC[C@@]12C (stereo partly specified) | 1.05
* COc1ccc2c(c1C(C)C)CCC1C(C)(C)C(=O)CCC21C (stereo unspecified) | 0.967
* CC(=O)OC1CN2CCC1CC2 (stereo unspecified) | 0.992
* C[C@@H]([C@H](O)c1ccccc1)N(C)C | 1.02
* CC(C)c1c(O)ccc2c1CCC1C(C)(C)CCC[C@]21C (stereo partly specified) | 0.358
* CN[C@@H]1C(O)[C@@H](O[C@@H]2[C@@H](O)[C@H](O[C@H]3OC(CN)=CC[C@H]3N)[C@@H](N)C[C@H]2N)OC[C@]1(C)O (stereo partly specified) | 1
* CC(C)[N+](C)(CCC(C(N)=O)(c1ccccc1)c1ccccc1)C(C)C | 0.995
* CCC/C=C1\OC(=O)C2=C1CCC=C2 | 0.958

---

ASSAY REMARKS: chemical genetic growth profiling, strain panel (AID 1159580);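 further: tested at 20 µM; growth read once vehicle control cultures reached saturation at 30 °C; 1 = growth at the plate median or of vehicle wells; lower values mean less growth of the strain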
ASSAY CONDITIONS: S. cerevisiae deletion strains, growth OD, locus YPL240C, strain hsp82, active compounds read low
The campaign covered roughly 5,500 compounds. About 2,000 (36%) were called active. Roughly 18% stayed inconclusive and do not appear here. Some of the results follow.
PROPERTY NAME: normalized growth

- C[C@@H]1O[C@@H](OC[C@H]2OC(Oc3c(-c4ccc(OCCO)c(OCCO)c4)oc4cc(OCCO)cc(O)c4c3=O)[C@H](O)[C@@H](O)[C@@H]2O)[C@H](O)[C@H](O)[C@H]1O (some centres not stated): 0.972
- CCCCC1C(=O)N(c2ccccc2)N(c2ccc(O)cc2)C1=O (configuration not stated): 1.01
- CCOCN(C(=O)CCl)c1c(C)cccc1CC: 0.995
- COc1cc(OC)c2c(=O)c(OC)c(-c3ccc(OC)c(OC)c3)oc2c1: 1
- CC1(C)O[C@H]2CC(=O)OC[C@]23[C@H]2CC[C@@]4(C)[C@H](c5ccoc5)OC(=O)[C@H]5O[C@]54[C@]2(C)C(=O)C[C@@H]13: 0.992
- COc1ccc(-c2cc(=O)c3c(O)cc(O[C@H]4O[C@H](CO[C@@H]5O[C@@H](C)[C@H](O)[C@@H](O)[C@H]5O)[C@@H](O)[C@H](O)[C@H]4O)cc3o2)cc1: 0.995
- COc1cc(OC)c2c(=O)c(O)c(-c3ccc(OC)c(OC)c3)oc2c1: 0.92
- CN(C)c1ccc2nc3ccc(=[N+](C)C)cc-3sc2c1: 1.06
- CCCC(C)(COC(N)=O)COC(=O)NC(C)C (configuration not stated): 1
- NC(=O)CN1CCCC1=O: 0.999
- CC[n+]1c(-c2ccccc2)c2cc(N)ccc2c2ccc(N)cc21: 0.97
- Oc1cc2c(cc1O)C1c3ccc(O)c(O)c3OCC1(O)C2 (configuration not stated): 1.02
- CO[C@@]1(NC(=O)C(C(=O)O)c2ccc(O)cc2)C(=O)N2C(C(=O)O)=C(CSc3nnnn3C)CO[C@@H]21 (some centres not stated): 0.981
- CCC1OC(=O)[C@H](C)C(=O)[C@H](C)[C@@H](OC2O[C@H](C)C[C@H](N(C)C)[C@H]2O)[C@](C)(OC)C2(CCCn3cnc(-c4cccnc4)c3)C[C@@H](C)C(=O)[C@H](C)[C@H]3N(C2)C(=O)O[C@]13C (some centres not stated): 0.986
- COc1cccc2c(C)cc(=O)[nH]c12: 0.959
- Oc1ccc2c(c1)OCC1(O)Cc3cc(O)c(O)cc3C21 (configuration not stated): 1.02
- COc1ccc(-c2oc3c(CC=C(C)C)c(O[C@@H]4O[C@H](CO)[C@@H](O)[C@H](O)[C@H]4O)cc(O)c3c(=O)c2O[C@@H]2O[C@@H](C)[C@H](O)[C@@H](O)[C@H]2O)cc1: 1.02

---

ASSAY REMARKS: chemical genetic growth profiling, strain panel (AID 1159580);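 further: tested at 20 µM; growth read once vehicle control cultures reached saturation at 30 °C; 1 = growth at the plate median or of vehicle wells; lower values mean less growth of the strain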
ASSAY CONDITIONS: S. cerevisiae deletion strains, growth OD, locus YAL013W, strain DEP1, active compounds read low
Out of some 5,500 compounds screened, about 2,000 (36%) were called active. Not shown: some 18% with an inconclusive outcome. Some of the results follow.
// boundary case: normalized growth equal to 1 maps to Condition not met; strictly smaller maps to Condition met

- Cc1onc(-c2ccc(Cl)cc2)c1-c1ccnn1C(=O)NC(C)C: Condition met
- CC(C)c1c(O)ccc2c1CCC1C(C)(C)CCC[C@]21C (stereo not given in full): Condition met
- COc1cc(=O)n(C)c2c(OCC(O)C(C)(C)O)cccc12 (stereo not given): Condition not met

---

ASSAY REMARKS: chemical genetic growth profiling, strain panel (AID 1159580);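 further: tested at 20 µM; growth read once vehicle control cultures reached saturation at 30 °C; 1 = growth at the plate median or of vehicle wells; lower values mean less growth of the strain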
ASSAY CONDITIONS: S. cerevisiae deletion strains, growth OD, locus YDR195W, strain ref2
Hit rate of the full screen: of about 5,500 compounds, about 2,000 (36%) were called active. Not shown: some 18% with an inconclusive outcome. The list shows a part of the results. Where a SMILES comes first, the peptide text is derived from it.
PROPERTY NAME: normalized growth

• C[N+](C)(C)CC(O)CC(=O)O (stereo not given) = 0.96
• CC(=O)OC(C)C[N+](C)(C)C (stereo not given) = 0.982
• Cc1ccccc1OCC(O)CO (stereo not given) = 0.957
• COc1ccc(-c2cc(=O)c3c(O)cc(O[C@@H]4O[C@H](CO[C@H]5O[C@H](C)[C@@H](O)[C@H](O)[C@@H]5O)[C@@H](O)[C@H](O)[C@H]4O)cc3o2)cc1O = 1.04
• C[C@@H]([C@H](O)c1ccccc1)N(C)C = 1.01
• COC(=O)[C@@]1(C)CCC[C@]2(C)c3ccc(O)c(C(C)C)c3CCC12 (stereo not given in full) = 0.189
• C[C@@H]1O[C@@H](OC[C@H]2OC(Oc3c(-c4ccc(OCCO)c(OCCO)c4)oc4cc(OCCO)cc(O)c4c3=O)[C@H](O)[C@@H](O)[C@@H]2O)[C@H](O)[C@H](O)[C@H]1O (stereo not given in full) = 0.892
• CC1O[C@@H](Oc2c(-c3ccc(O)c(O)c3)oc3cc(O)cc(O)c3c2=O)[C@H](O)[C@H](O)[C@H]1O (stereo not given in full) = 0.967
• CC(=O)Oc1ccc2c(c1OC(C)=O)OCC1(O)Cc3c(cc(OC(C)=O)c(OC(C)=O)c3OC(C)=O)C21 (stereo not given) = 1.01
• COC(=O)[C@H](Cc1ccccc1)NC(=O)[C@@H](N)CC(=O)O (H-Asp-Phe-OMe) = 1.01
• CC(C)(C)NCC(O)c1cc(O)cc(O)c1 (stereo not given) = 0.998
• CCOCN(C(=O)CCl)c1c(C)cccc1CC = 0.982
• Oc1cc2c(cc1O)C1c3ccc(O)c(O)c3OCC1(O)C2 (stereo not given) = 1.02
• COc1ccc2c(c1)CCC1C2CC[C@@]2(C)C1CC[C@@H]2O (stereo not given in full) = 0.953
• NC(N)=NC(=O)c1nc(Cl)c(N)nc1N = 1.04
• COC1=CC(=O)C(O)=C/C1=C\C=C\c1ccccc1 = 0.115
• Oc1ccc2c(c1)OCC1(O)Cc3cc(O)c(O)cc3C21 (stereo not given) = 1.02
• CC1(C)C2CC(=O)[C@]3(C)C(CC[C@@]4(C)[C@H](c5ccoc5)OC(=O)[C@H]5O[C@]543)[C@@]2(C)C(=O)C[C@H]1O (stereo not given in full) = 0.977
• CC(C)c1c(O)ccc2c1CCC1[C@@](C)(CO)CCC[C@]21C (stereo not given in full) = 1.05
• O=c1c(O)c(-c2ccc(O)c(O)c2)oc2c(O)c(O)cc(O)c12 = 1.01
• C[C@@H]1CC[C@@]2(NC1)O[C@H]1C[C@H]3C4CC=C5C[C@@H](O)CC[C@]5(C)C4CC[C@]3(C)C1[C@@H]2C (stereo not given in full) = 0.153
• CC1(C)O[C@H]2CC(=O)OC[C@]23[C@H]2CC[C@@]4(C)[C@H](c5ccoc5)OC(=O)[C@H]5O[C@]54[C@]2(C)C(=O)C[C@@H]13 = 0.967
• CCC(c1ccc(O)cc1)C(CC)c1ccc(O)cc1 (stereo not given) = 1.02
• COc1ccc(Cl)cc1C(=O)NCCc1ccc(S(=O)(=O)NC(=O)NC2CCCCC2)cc1 = 0.927
• CC1CCC2(OC1)OC1CC3C4CC[C@H]5C[C@@H](O)CC[C@]5(C)C4CC(=O)[C@]3(C)C1C2C (stereo not given in full) = 1.04
• C[C@@H]1CC[C@@]2(OC1)OC1CC3C4CC=C5C[C@@H](O)CC[C@]5(C)C4CC[C@]3(C)C1[C@@H]2C (stereo not given in full) = 0.991
• CC1(C)C=CC(=O)[C@@]2(C)C1CC(=O)[C@]1(C)C2CC[C@@]2(C)[C@H](c3ccoc3)OC(=O)C3OC321 (stereo not given in full) = 1.03
• CC[n+]1c(-c2ccccc2)c2cc(N)ccc2c2ccc(N)cc21 = 1.04
• CCCCOc1cc(C(=O)NCCN(CC)CC)c2ccccc2n1 = 0.932
• C=C[C@H]1CN2CC[C@H]1C[C@@H]2[C@@H](OC(=O)OCC)c1ccnc2ccc(OC)cc12 = 0.956
• OC1CC2CCCC(C1)N2Cc1ccccc1 (stereo not given) = 0.913
• NC(=NCCC[C@H](N)C(=O)O)N[N+](=O)[O-] = 1.04
• O=C(Cc1cccs1)NC1C(=O)N2C(C(=O)[O-])=C(C[n+]3ccccc3)CSC12 (stereo not given) = 1.01
• O=c1c(O)c(-c2ccc(O)cc2O)oc2cc(O)cc(O)c12 = 0.964
• C=C1CCC2(OC1)OC1CC3C4CC=C5CC(O)CC(O)C5(C)C4CCC3(C)C1C2C (stereo not given) = 0.889
• COc1ccc2c(c1)CCC1C2CCC2(C)C1C[C@@H](O)C2O (stereo not given in full) = 1.1
• CCC(N)C(O)c1ccc(O)c(O)c1 (stereo not given) = 0.931
• C[C@@H]1CC[C@@]2(OC1)O[C@H]1CC3C4CC[C@H]5C[C@@H](O)CC[C@]5(C)C4CC[C@]3(C)[C@H]1[C@@H]2C (stereo not given in full) = 0.989
• CC1(C)C(=O)C=C[C@@]2(C)C1CC(=O)[C@]1(C)C2CC[C@@]2(C)[C@H](c3ccoc3)OC(=O)[C@H]3O[C@]321 (stereo not given in full) = 1.02
• C[C@]12CCC3c4ccc(O)cc4CCC3C1C[C@@H](O)[C@@H]2O (stereo not given in full) = 0.999
